Consider the following molecules; for each one, report its IC50.

### Prompt State measured IC50 of the molecule "N#C/C(=C\c1c[nH]c2ncccc12)C(=O)NCc1cccc(C(N)=O)c1" with GRK5 (Homo sapiens, UniProt P34947).
Sequence (P34947 whole entry): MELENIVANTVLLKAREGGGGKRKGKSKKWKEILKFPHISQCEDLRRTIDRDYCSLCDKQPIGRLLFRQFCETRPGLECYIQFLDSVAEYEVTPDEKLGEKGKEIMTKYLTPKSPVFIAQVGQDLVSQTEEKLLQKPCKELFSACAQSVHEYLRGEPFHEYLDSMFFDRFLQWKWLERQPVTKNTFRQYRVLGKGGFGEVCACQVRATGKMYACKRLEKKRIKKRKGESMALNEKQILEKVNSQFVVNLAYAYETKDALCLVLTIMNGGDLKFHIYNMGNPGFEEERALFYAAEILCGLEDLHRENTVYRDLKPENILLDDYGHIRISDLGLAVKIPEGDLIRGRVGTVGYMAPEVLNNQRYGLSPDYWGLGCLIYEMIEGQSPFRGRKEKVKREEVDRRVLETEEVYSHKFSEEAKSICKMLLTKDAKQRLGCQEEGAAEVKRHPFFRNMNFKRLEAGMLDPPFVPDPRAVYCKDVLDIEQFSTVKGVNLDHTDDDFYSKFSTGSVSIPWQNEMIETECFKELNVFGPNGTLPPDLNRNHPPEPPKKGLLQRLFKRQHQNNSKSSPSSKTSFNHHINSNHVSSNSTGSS
### Response 500 to 1000 nM

### Prompt # assay system GRK5 (Homo sapiens, UniProt P34947): give IC50 of "COc1ccc([C@@H](C)NC(=O)/C(C#N)=C/c2c[nH]c3ncc(-c4cccc(N5CCN(C)CC5)c4)cc23)cc1OC"
### Response ≤ 50 nM

### Prompt Lab note: record IC50 of "COc1ccc([C@@H](C)NC(=O)/C(C#N)=C/c2c[nH]c3ncc(-c4cc(F)cc(F)c4)cc23)cc1OC" tested on GRK5 (Homo sapiens, UniProt P34947).
### Response 50 to 100 nM

### Prompt Under GRK5 (Homo sapiens, UniProt P34947): report IC50 of "COc1ccc([C@@H](C)NC(=O)/C(C#N)=C/c2c[nH]c3ncc(-c4cccc(OCCCN(C)C)c4)cc23)cc1OC" .
### Response 1000 to 10000 nM

### Prompt Determine reported IC50 for "COc1ccc([C@@H](C)NC(=O)/C(C#N)=C/c2c[nH]c3ncc(-c4ccc5nc(C)cn5c4)cc23)cc1OC" ; test system: GRK5 (Homo sapiens, UniProt P34947).
### Response ≤ 50 nM

### Prompt Param request: IC50 | system GRK5 (Homo sapiens, UniProt P34947) | item N#C/C(=C\c1c[nH]c2ncccc12)C(=O)NC(c1cccc(Br)c1)C(F)(F)F (centres unmarked)
### Response 1000 to 10000 nM

### Prompt Name the recorded IC50 of "COc1ccc([C@@H](C)NC(=O)/C(C#N)=C/c2c[nH]c3ncc(Nc4ccccc4)cc23)cc1OC" , assay system GRK5 (Homo sapiens, UniProt P34947).
### Response ≤ 50 nM

### Prompt Please tell me the measured IC50 for "C[C@@H](NC(=O)/C=C/c1c[nH]c2ncc(-c3cnn(C)c3)cc12)c1ccc(F)c(F)c1" ; system: GRK5 (Homo sapiens, UniProt P34947).
### Response ≤ 50 nM

### Prompt State recorded IC50 with GRK5 (Homo sapiens, UniProt P34947), entry COc1ccc(C(C)NC(=O)/C=C/c2c[nH]c3ncc(-c4cnn(C)c4)cc23)cc1C1CC1 (centres unmarked) , no comment.
### Response 50 to 100 nM

### Prompt Provide GRK5 (Homo sapiens, UniProt P34947) IC50 reading for "COc1ccc([C@@H](C)NC(=O)/C=C/c2c[nH]c3ncc(-c4cccc(SC)c4)cc23)cc1OC" .
### Response ≤ 50 nM

### Prompt Lab note: record IC50 of "COc1ccc([C@@H](CO)NC(=O)/C=C/c2c[nH]c3ncc(C)cc23)cc1OC" tested on GRK5 (Homo sapiens, UniProt P34947).
### Response ≤ 50 nM

### Prompt Supply IC50 measured with GRK5 (Homo sapiens, UniProt P34947) for "COc1ccc([C@@H](C)NC(=O)/C(C#N)=C/c2c[nH]c3ncc(-c4ccc(N5CCN(C)CC5)cc4OC)cc23)cc1OC" .
### Response ≤ 50 nM

### Prompt Name the value of IC50 reported for "COc1ccc([C@@H](C)NC(=O)/C(C#N)=C/c2c[nH]c3ncc(-c4cccc(N(C)C)c4)cc23)cc1OC" when tested on GRK5 (Homo sapiens, UniProt P34947).
### Response 100 to 500 nM

### Prompt Look up GRK5 (Homo sapiens, UniProt P34947) data: IC50 of "COc1ccc([C@@H](C)NC(=O)/C(C#N)=C/c2c[nH]c3nccc(-c4cc(F)cc(F)c4)c23)cc1OC" , then report it.
### Response 100 to 500 nM

### Prompt Please report the measured IC50 for "COc1ccc([C@@H](C)NC(=O)/C(C#N)=C/c2c[nH]c3ncc(-c4ccc(C#N)cc4)cc23)cc1OC" tested on GRK5 (Homo sapiens, UniProt P34947).
### Response 50 to 100 nM

### Prompt Give GRK5 (Homo sapiens, UniProt P34947) IC50 for the following molecule: "COc1ccc([C@@H](C)NC(=O)/C=C/c2c[nH]c3nccc(-c4ccc(CN(C)C)cc4)c23)cc1OC"
### Response 100 to 500 nM

### Prompt Give reported IC50 for "COc1ccc([C@@H](C)NC(=O)/C=C/c2c[nH]c3ncc(-c4ccc(NS(C)(=O)=O)cc4)cc23)cc1OC" (GRK5 (Homo sapiens, UniProt P34947))
### Response ≤ 50 nM

### Prompt Identify measured IC50 obtained with GRK5 (Homo sapiens, UniProt P34947) for "COc1ccc([C@@H](C)NC(=O)/C(C#N)=C/c2c[nH]c3ncc(N4CCOCC4)cc23)cc1OC" .
### Response ≤ 50 nM

### Prompt Write IC50 of "C[C@@H](NC(=O)/C(C#N)=C/c1c[nH]c2ncc(Cl)cc12)c1ccc(F)cc1" ; system used: GRK5 (Homo sapiens, UniProt P34947)
### Response 100 to 500 nM

### Prompt Name the recorded IC50 of COc1ccc([C@@H](C)NC(=O)/C(C#N)=C/c2c[nH]c3ncc(OC4CCOC4)cc23)cc1OC (some centres unmarked) , assay system GRK5 (Homo sapiens, UniProt P34947).
### Response ≤ 50 nM

### Prompt Report its IC50 with GRK5 (Homo sapiens, UniProt P34947) as the test system: "COc1ccc([C@@H](C)NC(=O)/C(C#N)=C/c2c[nH]c3ncc(-c4ccc(F)c(S(C)(=O)=O)c4)cc23)cc1OC"
### Response ≤ 50 nM

### Prompt Recall the reported IC50 of "COc1ccc([C@@H](C)NC(=O)/C(C#N)=C/c2c[nH]c3nccc(-c4ccccc4)c23)cc1OC" on GRK5 (Homo sapiens, UniProt P34947) and write it down.
### Response ≤ 50 nM

### Prompt Give GRK5 (Homo sapiens, UniProt P34947) IC50 for the following molecule: "C[C@@H](NC(=O)/C(C#N)=C/c1c[nH]c2ncccc12)c1cccc(C(F)(F)F)c1"
### Response 100 to 500 nM

### Prompt Give IC50 for "COc1ccc(-c2cnc3[nH]cc(/C=C(\C#N)C(=O)N[C@H](C)c4ccc(OC)c(OC)c4)c3c2)cc1OC" tested on GRK5 (Homo sapiens, UniProt P34947).
### Response ≤ 50 nM

### Prompt Check GRK5 (Homo sapiens, UniProt P34947) data and give IC50 for "COc1ccc([C@@H](C)NC(=O)/C=C/c2c[nH]c3ncc(-c4cn(C)nc4C)cc23)cc1OC" .
### Response ≤ 50 nM

### Prompt Find IC50 for "COc1ccc([C@@H](C)NC(=O)/C=C/c2c[nH]c3ncc(Br)cc23)cc1OC" on GRK5 (Homo sapiens, UniProt P34947) and write it down.
### Response ≤ 50 nM

### Prompt State IC50 on GRK5 (Homo sapiens, UniProt P34947). Entry: "Cc1c(-c2cnn(C)c2)cnc2[nH]cc(/C=C(\C#N)C(=O)N[C@H](C)c3ccc(F)cc3)c12"
### Response 500 to 1000 nM

### Prompt For GRK5 (Homo sapiens, UniProt P34947), give the measured IC50 of the entry "COc1ccc([C@@H](C)NC(=O)/C(C#N)=C/c2c[nH]c3ncc(OCCN(C)C)cc23)cc1OC"
### Response ≤ 50 nM

### Prompt Give reported IC50 for "COc1ccc([C@@H](C)NC(=O)/C(C#N)=C/c2c[nH]c3ncc(N4CCN(C)CC4)cc23)cc1OC" (GRK5 (Homo sapiens, UniProt P34947))
### Response ≤ 50 nM

The reported measurements were obtained from patent US20240294522A1.
